Measurement type: melting point

Some solved entries appear below for comparison.
| Molecule | Measurement type | Data value |
| --- | --- | --- |
| CCC(C)(C)c1cccc(NC=O)c1C | melting point | 51 to 53 °C |
| O=[N+]([O-])c1c(NCCCO)cccc1NCCCO | melting point | 90 °C |
| CCN(CC)c1nc2ccccc2n2cnnc12 | melting point | 117 to 119 °C |
| COC(=O)c1cn(-c2ccc(F)cc2)c(-c2ccc(Cl)cc2)cc1=O | melting point | 250 to 254 °C |
| CCCn1c(=O)c2c(nc(/C=C/c3ccc4c(c3)OCCO4)n2C)n(CCC)c1=O | melting point | 182 °C |

I need melting point for every entry listed below, if you could help.
1. COc1cccc(C(=O)OC(=C2C(=O)N(C(N)=O)c3cc(Cl)c(F)cc32)c2cccs2)c1
2. Nc1cc([N+](=O)[O-])c(N)cc1SCC(O)CO (configuration not stated)
3. COc1ccc2c(c1)[C@H]1Cc3c(cc(C)c(OC)c3C)[C@H]1N2 (relative stereo)
4. C=Cn1cc(C(=O)OCC)c(=O)c2cc(F)c(Cl)nc21

1. 196 to 220 °C
2. 164 °C
3. 149 to 150 °C
4. 150 to 151 °C

I need melting point for every entry listed below, if you could help.
1. CCOC(=O)C(=O)Nc1cccc(C)n1
2. Cc1oc(Cl)nc1-c1ccc(Cl)cc1Cl
3. COc1ccc(C(=O)Nc2ccc(C(C)(C)CNC(=O)c3nn(C)cc3Br)cc2)cc1OC

1. 61 to 63 °C
2. 78 °C
3. 112 to 113 °C

I need melting point for every entry listed below, if you could help.
1. Cc1cccc(-c2n[nH]cc2-c2ccc(F)c(-c3ccc(S(N)(=O)=O)s3)c2)n1
2. COC(=O)c1ccc(-c2nc(NCc3ccc(OC)c(Cl)c3)c3c(n2)sc2ccccc23)cc1
3. CCOC(=O)c1cc(F)c(SCC)nc1NCc1ccc(OC)cc1
4. CCOC(=O)CCn1c(=O)[nH]c2ccccc2c1=O
5. CCOC(=O)C=Cc1ccc(C(F)(F)F)cc1
6. O=C(O)c1cc(=O)c(-c2ccc(OCc3ccccc3)c(OCc3ccccc3)c2)co1
7. CCCCC#CCCOc1ccc(/C=C/C(=O)Nc2ccccc2C(=O)O)cc1OC

1. 125 °C
2. 203 to 204 °C
3. 59 °C
4. 192 to 194 °C
5. 31 to 32.5 °C
6. 206 to 208 °C
7. 169 to 170 °C

I need melting point for every entry listed below, if you could help.
1. C[C@]1(c2ccccc2)C[C@@]1(NS(=O)(=O)c1ccc(-c2cc(C(F)(F)F)on2)s1)C(=O)O
2. CCOC(=O)c1ccc(-c2coc(-c3cccc(C(F)(F)F)c3)n2)cc1
3. O=c1c2ccccc2nc(-c2sc(Nc3ccccc3)nc2-c2ccccc2)n1-c1ccc(Cl)cc1
4. CCCc1c(OCCCCCCCOc2ccc(C(=O)c3cccc(C(=O)O)c3)cc2CCC(=O)O)ccc2c1OCCC2=O
5. CCOC(=O)c1cc2cc(-c3ccc(C(C)=O)cc3)ccc2o1

1: 130 to 132 °C; 2: 132 to 133 °C; 3: 218 to 222 °C; 4: 152 to 153 °C; 5: 105 to 107 °C

I need melting point for every entry listed below, if you could help.
1. COc1ccccc1CN1CN2CCCC1C2c1ccccc1 (configuration not stated)
2. NC(=O)N(O)[C@H]1CC[C@@H](Sc2ccccc2)C1 (relative stereo)
3. O=C(Nc1ccccc1)c1cccc(C2=NOCCS2)c1

1. 105 to 107 °C
2. 146 to 148 °C
3. 149 to 150 °C

----------
Measurement type: melting point

Some solved entries appear below for comparison.
| Compound | melting point |
| --- | --- |
| COc1ccccc1N1CCN(CC(O)COc2ccc(CC(C)=O)cc2)CC1 (stereo unspecified) | 42 to 43 °C |
| C=C(C)CN1Cc2cc(Cl)cc3[nH]c(=S)n(c23)[C@@H](C)C1 | 171 °C |
| CC(=O)Nc1nc(C)c(S(=O)(=O)n2c(CCCC(=O)O)cc3cc(Cl)ccc32)s1 | 231 to 233 °C |
| CSc1nc2ccc(CCc3nc4cc(C)ccn4c3C)cc2o1 | 106 to 107 °C |

I need melting point for every entry listed below, if you could help.
1. OC1(c2ccc(C(F)(F)F)cc2)CCN(Cc2ccccc2)CC1
2. COc1cc(N2CCC(N3CCOCC3)CC2)ccc1-c1nc2c(N[C@H]3[C@@H](C(N)=O)[C@@H]4C=C[C@H]3C4)c(Br)cnc2[nH]1

1: 115 to 117 °C; 2: 185 to 195 °C

----------
Please respond with reported melting point for every item in the list.

I need melting point for every entry listed below, if you could help.
1. NS(=O)(=O)CC(=O)c1ccccc1
2. N#Cc1cc(Cc2ccc(Cl)cc2)ccc1N
3. NC(=S)NCc1cccs1

["97 to 99 °C", "91.5 to 93 °C", "99 to 101 °C"]

----------
Measurement type: melting point

Some solved entries appear below for comparison.
| Compound | Data value |
| --- | --- |
| CCC1(Cc2nc[nH]c2C)CCc2c(C)c3ccccc3n2C1=O (configuration not stated) | 202 to 204 °C |
| N#Cc1cc(-c2cccnc2)nn1-c1ccc(NCC2Cc3ccccc3C2)cc1 | 156 to 158 °C |
| CCOC(=O)c1[nH]c2ccc(C)cc2c1C | 118 °C |

I need melting point for every entry listed below, if you could help.
1. NC(=O)C(Nc1ccccc1C1CC1)c1c(Cl)cccc1Cl (configuration not stated)
2. COc1c(N2CCC(N)C2)c(F)cc2c(=O)c(C(=O)O)cn(C3CC3)c12 (configuration not stated)
3. CCOC(=O)c1cc2c3ccccc3ncn2c1
4. Cc1nc(N)c2nc(C)n(CCCCCS(C)(=O)=O)c2c1C
5. CN(CCCN1c2ccccc2CCc2ccccc21)C(=O)c1cccnc1

["196 °C", "208 to 212 °C", "138 to 139 °C", "199 to 200 °C", "84 to 86 °C"]

I need melting point for every entry listed below, if you could help.
1. O=C(O)COc1nnc(C(Cl)(Cl)Cl)s1
2. COc1cc(-c2cccc(Cl)c2)c2cc(C(O)(c3ccc(Cl)cc3)c3cncn3C)cc(NC(C)=O)c2n1 (configuration not stated)
3. Cc1ccc(S(=O)(=O)C(=[N+]=[N-])C(=O)C(C)(C)C)cc1
4. COC(=O)CCc1cc2cc(Cl)ccc2n1S(=O)(=O)c1ccc2c(c1)CCN2C(C)=O
5. O=C(O)CCNc1cc(C(c2cc(F)ccc2F)S(=O)(=O)c2ccc(Cl)cc2)c(Cl)cn1 (configuration not stated)
6. CC(=O)NCCNc1nc(-c2ccccc2)nc2[nH]c(COc3ccccc3)cc12
7. COc1cc(OC)c2ccsc2c1

["100 °C", "143 °C", "120 to 122 °C", "129 °C", "200 to 205 °C", "196 to 197 °C", "78 to 80 °C"]

I need melting point for every entry listed below, if you could help.
1. CCCC(=O)Nc1cccc(-c2ccc3nnc(C)n3n2)c1
2. C(=NNc1nc(OCCc2ccccn2)nc(N2CCOCC2)n1)c1c[nH]c2ccccc12

1: 195 to 198 °C; 2: 158 to 161 °C

----------
Measurement type: melting point

Some solved entries appear below for comparison.
| Compound | melting point |
| --- | --- |
| CNc1ccc(C(=O)NCCC(=O)O)cc1[N+](=O)[O-] | 187 to 190 °C |
| CN1CCN(S(=O)(=O)c2ccc(O)cc2)CC1 | 225 to 227 °C |
| CC(C)(C)c1cc(SCc2cccc(C#N)c2)cc(C(C)(C)C)c1O | 61 to 63 °C |

I need melting point for every entry listed below, if you could help.
1. COC1CC(OCc2ccccc2)C(OS(=O)(=O)c2ccc(C)cc2)C(COC(c2ccccc2)(c2ccccc2)c2ccccc2)O1 (stereo not given)
2. O=[N+]([O-])c1cnn2c1-c1ccccc1NC2C=Cc1ccccc1 (stereo not given)
3. CCCN1C(=O)COc2cc(F)c(N=c3sc(=S)n4n3CCCC4)cc21
4. CC(C)(C)c1ccc(C(=O)c2ccccc2O)c(C(C)(C)C)c1O
5. CCOc1cccc(-n2nc(C)c3c(O)c(C(=O)c4ccccc4)cnc32)n1
6. c1ccc(COc2cccc(CCCn3ccnn3)c2)cc1

1. 94 to 97 °C
2. 171 to 173 °C
3. 112 to 114 °C
4. 126 to 128 °C
5. 160 to 162 °C
6. 74 to 75 °C

Value lookup for melting point; key = COc1nc(Cl)cnc1NS(=O)(=O)c1ccccc1-c1ccc(OC(C)C(=O)O)cc1 (stereo not given) 223 to 225 °C

Source listed as a melting point compilation (Tetko et al.; mined from patent text by program, amines drawn as free bases though some values may be those of a salt).
